Tested on: DU-145 prostate
assay: NCI-60 one-dose screen, 48 h
cond: 10 µM unless noted
This is part of a sample that, as a whole, favours compounds with a hit. Of some 83,000 tested, about 20% had one in any assay. Calls of active or inactive are those of the source. How the source made its calls: active means growth percent below 10; inactive means the rest.
Could you please pick one outcome from this set? yes for active, no for inactive

# outcome recorded in this test, key = `COc1ccc(/C(C)=C(\c2ccc(Cl)cc2)c2ccc(OCCCN(C)C)cc2)cc1F`
no

# outcome recorded in this test, key = `O=C1NCC(=O)N(Cc2ccco2)[C@H]1Cc1ccccc1`
no

# outcome recorded in this test, key = `O=c1[nH]c(NCc2nnnn2-c2ccc(Br)cc2)nc2sc3c(c12)CCCC3`
no

# outcome recorded in this test, key = `O=C1c2cccc3c(-c4ccc(-c5nc6c7ccccc7c7ccccc7c6[nH]5)cc4)ccc(c23)C(=O)N1CCN1CCNCC1`
no

# outcome recorded in this test, key = O=C1NC(=S)S/C1=C\N1N=C(c2ccc(Cl)cc2)CC1c1ccc(F)cc1 (stereo not given)
no

# outcome recorded in this test, key = `COc1ccc(-c2nnc(SCC(=O)NC3=NN=C(c4ccccc4)CS3)o2)cc1`
no

# outcome recorded in this test, key = `Nc1ccc(-c2cc3c(Nc4ccc(OCc5cccc(F)c5)c(Cl)c4)ncnc3s2)cc1`
no

# outcome recorded in this test, key = `CCOC(=O)c1sc(-c2ccc(OS(=O)(=O)c3ccc(C(C)(C)C)cc3)c(C=O)c2)nc1C`
no

# outcome recorded in this test, key = `CCN(CC)CCOc1ccc(/C(=C(\C)c2ccc(F)c(OC)c2)c2ccc(Cl)cc2)cc1`
no

# outcome recorded in this test, key = O=C1C(Cl)C(c2ccccc2Cl)N1n1cnnc1 (stereo not given)
no

# outcome recorded in this test, key = C=C1c2c(C)nn(-c3ccc(S(N)(=O)=O)cc3)c2N(C)C23CC1C1(C)c4c(C)nn(-c5ccc(S(N)(=O)=O)cc5)c4N(C)C(C)(CC12)C3 (stereo not given)
no

# outcome recorded in this test, key = `CN1CCN(CCCOc2ccc3nc(Nc4cc(Cl)cc(Cl)c4)ccc3c2)CC1`
yes

# outcome recorded in this test, key = `Nc1c(C(=O)Nc2ccccc2)sc2nc3c(cc12)CCCCCC3`
no

# outcome recorded in this test, key = `c1ccc2c(c1)nc(-n1ccnc1)c1nc3ccccc3n12`
no

# outcome recorded in this test, key = `CS(=O)(=O)c1ccc(-c2[nH]c3ccc(F)cc3c2/C=N/NC(N)=S)cc1`
no

# outcome recorded in this test, key = `C=C1C(=O)O[C@H]2[C@H]1CC/C(COC(=O)/C=C/C(=O)NCc1ccc(Cn3c(=O)sn(-c4ccccc4)c3=O)cc1)=C\CC[C@@]1(C)O[C@@H]21`
yes

# outcome recorded in this test, key = `N#C/C(=C\c1ccc(Br)cc1)n1nnc2cc(Cl)c(Cl)cc21`
no

# outcome recorded in this test, key = `NS(=O)(=O)Oc1ccc(-c2sc3cc(O)ccc3c2C(=O)c2ccc(OCCN3CCCCC3)cc2)cc1`
no

# outcome recorded in this test, key = `NC(N)=N/N=C(/c1ccccc1)c1ccc(N)cc1`
no

# outcome recorded in this test, key = O=C(O)CC1Sc2ccccc2NC1=O (stereo not given)
no

# outcome recorded in this test, key = `CCOC(=O)c1c(C)nc2c(c1N)/C(=C/c1ccc(OC)cc1)C(=O)N2Cc1ccc(F)cc1`
yes

# outcome recorded in this test, key = `OCCCCc1nccc2c1[nH]c1ccccc12`
no

# outcome recorded in this test, key = `NC(=S)c1csc(CCNC(=O)c2ccccc2)n1`
no

# outcome recorded in this test, key = `Cc1ccc(S(=O)(=O)NN/C(N)=N\S(=O)(=O)c2cc(C)c(Cl)cc2SCc2ccccc2)cc1`
no

# outcome recorded in this test, key = CNC(=O)NCC1OC(n2cnc3c(NC(=O)Nc4ccccc4)ncnc32)C2OC(C)(C)OC12 (stereo not given)
no

# outcome recorded in this test, key = `CC(C)(C)c1ccc(C(=O)Nc2sc3c(c2C(N)=O)CCC(=O)C3)cc1`
no

# outcome recorded in this test, key = `Cc1cc2c(F)c(Oc3ncnc(Nc4ccc(N5C[C@@H](C)N[C@@H](C)C5)cc4)c3C#N)cc(F)c2[nH]1`
no

# outcome recorded in this test, key = CCN(CC)CCCC(C)NCc1ccccc1 (stereo not given)
no

# outcome recorded in this test, key = `Cn1ncc2c(Nc3ccc(Br)cc3)nc(Nc3ccc(Br)cc3)nc21`
no

# outcome recorded in this test, key = `CCN(CCO)CC(=O)c1cc(Cl)cc(Cl)c1Cl`
no

# outcome recorded in this test, key = `CC(C)(C)Nc1c(-c2c3ccccc3cc3ccccc23)nc2ccccn12`
no

# outcome recorded in this test, key = `CCCN1CCN(c2ccc3nc(-c4ccc5nc(-c6ccc(OCC)c(OCC)c6)[nH]c5c4)[nH]c3c2)CC1`
yes

# outcome recorded in this test, key = Nc1nc(I)c2ncn(C3OC(CO)C(O)C3O)c2n1 (stereo not given)
no

# outcome recorded in this test, key = `CC(=O)Nc1ccc(-c2cc3c(NCc4ccc(F)cc4)ncnc3s2)cc1`
no

# outcome recorded in this test, key = `COc1cc2c(=O)n(CCCn3ccnc3)c3c4cc5c(cc4ccc3c2cc1OC)OCO5`
no

# outcome recorded in this test, key = `COc1cc(CNC(=O)/C=C/C=C/c2ccc3c(c2)OCO3)ccc1OCc1cn(-c2ccc(Cl)c(Cl)c2)nn1`
yes

# outcome recorded in this test, key = `COc1ccc(-c2nc3ncccn3c2/C=C/C(=O)c2cc(OC)c(OC)c(OC)c2)cc1`
yes

# outcome recorded in this test, key = `CCNCCNc1cc(-c2ccc(C(=O)OC)cc2)c(C#N)c2nc3ccccc3n12`
no

# outcome recorded in this test, key = COc1cccc(CCC2CCCN(c3cc(C)nc(N)n3)C2)c1 (stereo not given)
no

# outcome recorded in this test, key = `Cc1ccc(/C=C(\C#N)n2nnc3cc(Cl)c(Cl)cc32)cc1`
yes

----------
Tested on: MDA-MB-231 breast
assay: NCI-60 one-dose screen, 48 h (100 = growth as untreated, 0 = no growth, -100 = all killed)
cond: 10 µM unless noted
The panel holds about 83,000 compounds, 20% with a hit somewhere; the sample as a whole holds those more often.
Quick rule for you: growth at 50% or higher means rule met, lower means rule not met.

Test whether the compound `O=C(NCCOCCOCCOCCNC(=O)c1cc2c(o1)C(=O)c1ccccc1C2=O)NC12CC3CC(CC(C3)C1)C2` records growth of 50% or higher.
rule not met

Test whether the compound C=C1c2c(C)nn(-c3ccc(N)cc3)c2N(C)C23CC1C1(C)c4c(C)nn(-c5ccc(N)cc5)c4N(C)C(C)(CC12)C3 (centres undefined) records growth of 50% or higher.
rule met

Test whether the compound `CCOC(=O)c1c(C)nc2c(c1N)/C(=C/c1cc(OC)c(OC)c(OC)c1)C(=O)N2c1ccc(OC)cc1` records growth of 50% or higher.
rule met

Test whether the compound `COc1ccc(OC)c(/C=C2\COc3ccc(O)cc3C2=O)c1` records growth of 50% or higher.
rule met

Test whether the compound `CC(C)(C)N1CC(OC(N)=O)C1` records growth of 50% or higher.
rule met

Test whether the compound `CCCCCCCC/C=C\CCCCCCCC(=O)Oc1cccc2cccnc12` records growth of 50% or higher.
rule met

Test whether the compound O=C(NCCOCCOCCNc1cccc2c1C(=O)N(C1CCCNC1=O)C2=O)c1cc2c(o1)C(=O)c1ccccc1C2=O (centres undefined) records growth of 50% or higher.
rule not met

Test whether the compound `COc1ccc(Nc2ncc(Br)c(NCCCNC(=O)C3CCC3)n2)cc1` records growth of 50% or higher.
rule not met

----------
Tested on: NCI/ADR-RES ovarian
assay: NCI-60 one-dose screen, 48 h (100 = growth as untreated, 0 = no growth, -100 = all killed)
cond: 10 µM unless noted
This is part of a sample that, as a whole, favours compounds with a hit. Of some 83,000 tested, about 20% had one in any assay. Calls of active or inactive are those of the source. How the source made its calls: active means growth percent below 10; inactive means the rest.
For each record, write down the corresponding growth.

Look up growth: `Cc1ccc(/C(=N\N=C(N)N)c2ccccc2)cc1`
15.5% (inactive)

Look up growth: `C=CC(=O)Nc1cccc(C)c1Nc1cc(-c2cccnc2Cc2c(C)c(OC)cc(OC)c2C)ncn1`
35.3% (inactive)

Look up growth: `CC(C)(C)N1CC(OC(N)=O)C1`
117% (inactive)

Look up growth: O=C1CC(c2ccc3c(c2)OCO3)Nc2cc3c(cc21)OCO3 (centres undefined)
13.5% (inactive)

Look up growth: `Clc1cnc(Nc2ccc(OCCN3CCCC3)cc2)nc1NCc1ccco1`
18.5% (inactive)

Look up growth: `O=C(Nc1ccccc1Cl)OCCN1CCOCC1`
104% (inactive)

Look up growth: `C=C(C)[C@@H]1CC[C@]2(CO)CC[C@]3(C)[C@H](CC[C@@H]4[C@@]5(C)C=C(C#N)C(=O)C(C)(C)[C@@H]5CC[C@]43C)[C@@H]12`
13.1% (inactive)

Look up growth: `CN(C)CCn1cc(-c2ccc3c(Nc4ccc(CC(=O)Nc5cccc(F)c5)cc4)ncnc3c2)cn1`
52.4% [30 µM] (inactive)

Look up growth: `COc1cccc(-c2cnco2)c1OCc1c(C)c(COc2c(OC)cccc2-c2cnco2)c(C)c(COc2c(OC)cccc2-c2cnco2)c1C`
81.2% (inactive)
